# Test system: A431 cells
# test: Proliferation assay on the squamous carcinoma cell line A431 cells (C5)
# Format: cell-based
# particulars: Homo sapiens, A-431; 72 hours with compounds; MTT cell viability assay; read-out: A431 cell (C5): pIC50 (converted)
value type: IC50

See these solved cases before continuing.
INSERT INTO results (smiles_entry, target, result) VALUES
  ('COc1cc2ncnc3c2cc1OCCCCCNCc1ccc(Br)cc1N3', 'A431 cells', '1260 nM'),
  ('COc1cc2ncnc3c2cc1OCCCCCCOc1ccc(C#N)cc1N3', 'A431 cells', '> 3160 nM'),
  ('COc1cc2ncnc3c2cc1OCCCCCCCCOc1cccc(c1)N3', 'A431 cells', '> 3160 nM'),
  ('COCCOc1cc2ncnc3c2cc1OCCCCCCOc1ccc(Br)cc1N3', 'A431 cells', '1580 nM'),
  ('COc1cc2ncnc3c2cc1OCCCNC(=O)CCc1ccc(Cl)cc1N3', 'A431 cells', '2000 nM'),
  ('COc1cc2ncnc3c2cc1OCCCCCCOc1ccc(Cl)cc1N3', 'A431 cells', '> 1000 nM');

For each listed entry, give its IC50.
1. COc1cc2ncnc3c2cc1OCCCCCOCCc1ccc(Cl)cc1N3
2. COc1cc2ncnc3c2cc1OCCCCCCNC(=O)c1ccc(Cl)cc1N3
3. COC(=O)c1ccc2c(c1)Nc1ncnc3cc(OC)c(cc13)OCCCCCCO2
4. COc1cc2ncnc3c2cc1OCCCCCCCc1ccc(Br)cc1N3
5. COc1cc2ncnc3c2cc1OCCCCCCOc1cc(Cl)ccc1N3
6. COc1cc2ncnc3c2cc1OCCCCCCOc1ccc(C(=O)N2CCCC2)cc1N3
7. COc1cc2ncnc3c2cc1OC(=O)CCCCCOc1c(C)cccc1N3

1. 1260 nM
2. > 3160 nM
3. > 3160 nM
4. > 3160 nM
5. > 3160 nM
6. > 3160 nM
7. > 1000 nM

====

value type: melting point

INSERT INTO results (molecule, result) VALUES
  ('COc1cc2ncnc3c2cc1OCCNC(=O)CNC(=O)Cc1ccc(Cl)cc1N3 [Compound 69]', '292 °C'),
  ('COc1cc2ncnc3c2cc1OCCCNC(=O)CN1CCN(CC1)Cc1ccc(Cl)cc1N3 [Compound 93]', '286.8 to 287.6 °C'),
  ('COc1cc2ncnc3c2cc1OCCCNC(=O)C1CCCN1Cc1ccc(Cl)cc1N3 (stereo not shown) [Compound 84]', '231.9 to 232.8 °C');

For each listed entry, give its melting point.
1. COc1cc2ncnc3c2cc1OCCCNC(=O)CCNCc1ccc(Cl)cc1N3 [Compound 70]
2. COc1cc2ncnc3c2cc1OCCCCCOc1ccc(Cl)cc1N3 [Compound 4]
3. COc1cc2ncnc3c2cc1OCCNC(=O)C(C(C)C)NC(=O)Cc1ccc(Cl)cc1N3 (stereo not shown) [Compound 66]
4. COc1cc2ncnc3c2cc1OCCNC(=O)CNCc1cc(F)c(Cl)cc1N3 [Compound 81]
5. CCN1CC(=O)NCCOc2cc3c(ncnc3cc2OC)Nc2cc(Cl)ccc2C1 [Compound 90]

["236.4 to 237.3 °C", "213.5 to 221.2 °C", "335 °C", "304.2 to 304.4 °C", "261.1 to 262 °C"]

====

# Tested on: A431 cells
# test: Proliferation assay on the squamous carcinoma cell line A431 cells (C5)
# Type: cell-based
# particulars: Homo sapiens, A-431; 72 hours with compounds; MTT cell viability assay; read-out: A431 cell (C5): pIC50 (converted)
value type: IC50

For each listed entry, give its IC50.
1. COc1cc2ncnc3c2cc1OCCCCCCOc1ccc(-c2ccccc2)cc1N3
2. COc1cc2ncnc3c2cc1OCCOCCOCCc1ccc(Cl)cc1N3
3. COc1cc2ncnc3c2cc1OCCCCCCOc1c(Cl)cccc1N3
4. COc1cc2ncnc3c2cc1OCCCCCCOc1ccc(C(=O)O)cc1N3
5. COc1cc2ncnc3c2cc1OCCCCCCOc1ccc(-c2cccc(C#N)c2)cc1N3
6. COc1cc2ncnc3c2cc1OCCCCCN(C(=O)OC(C)(C)C)Cc1cc(F)c(Cl)cc1N3

["> 3160 nM", "1580 nM", "> 1000 nM", "> 3160 nM", "> 3160 nM", "> 3160 nM"]

For each listed entry, give its IC50.
1. Brc1ccc2c(c1)Nc1ncnc3cc(OCCCN4CCOCC4)c(cc13)OCCCCCCO2
2. COc1cc2ncnc3c2cc1OCCCCCCCCON=Cc1ccc(Cl)cc1N3

2510 nM
> 3160 nM

For each listed entry, give its IC50.
1. COc1cc2ncnc3c2cc1OCCCCCN(C)Cc1ccc(Br)cc1N3
2. COc1cc2ncnc3c2cc1OCCCC(=O)NCCCc1ccc(Cl)cc1N3
3. COc1cc2ncnc3c2cc1OCCCCCCOc1ccc(C(=O)N2CCOCC2)cc1N3
4. COc1cc2ncnc3c2cc1OCCN(CCN1CCOCC1)CCCOc1ccc(Cl)cc1N3
5. COc1cc2ncnc3c2cc1OCCCCCN(C(=O)OC(C)(C)C)Cc1ccc(Br)cc1N3
6. COc1cc2ncnc3c2cc1OCCCCCNCc1cc(F)c(Cl)cc1N3

["1580 nM", "631 nM", "> 3160 nM", "1580 nM", "> 3160 nM", "> 1000 nM"]

Kindly note the recorded IC50 for COc1cc2ncnc3c2cc1OCCCCOCCc1ccc(Cl)cc1N3 , which is 501 nM

====

Give measured melting point for each item. Keep answers brief.

See these solved cases before continuing.
INSERT INTO results (molecule, result) VALUES
  ('COc1cc2ncnc3c2cc1OCCNC(=O)C(CO)NCc1ccc(Cl)cc1N3 (centres unmarked)', '276.3 to 277.4 °C'),
  ('COc1cc2ncnc3c2cc1OCCCCCCOc1ccc(Br)cc1N3', '228.6 to 234.8 °C');

For each listed entry, give its melting point.
1. COc1cc2ncnc3c2cc1OCCCNC(=O)CNCc1cc(F)c(Cl)cc1N3
2. COc1cc2ncnc3c2cc1OCCCCCCCCON=Cc1ccc(Cl)cc1N3
3. COc1cc2ncnc3c2cc1OCCNC(=O)C1CCCN1Cc1ccc(Cl)cc1N3 (centres unmarked) [Compound 71]

["311 to 311.9 °C", "127.2 to 132.2 °C", "261.2 to 265 °C"]

====

Give measured melting point for each item. Keep answers brief.

See these solved cases before continuing.
INSERT INTO assay_data (compound, result) VALUES
  ('COc1cc2ncnc3c2cc1OCCCCCCOc1c(Cl)cccc1N3', '255.5 to 260.2 °C'),
  ('COc1cc2ncnc3c2cc1OCCNC(=O)C(C)N(C)Cc1ccc(Cl)cc1N3 (stereo not drawn)', '265 °C'),
  ('COc1cc2ncnc3c2cc1OCCNC(=O)CN(C)Cc1cc(F)c(Cl)cc1N3', '306.3 to 307.4 °C'),
  ('COc1cc2ncnc3c2cc1OCCNC(=O)C1CCN(CC1)Cc1ccc(Cl)cc1N3', '246.6 to 248.2 °C'),
  ('COc1cc2ncnc3c2cc1OCCCCNCCN(C)Cc1ccc(Cl)cc1N3', '196.9 to 197.8 °C');

For each listed entry, give its melting point.
1. COc1cc2ncnc3c2cc1OCCNC(=O)C1CCCN1Cc1ccc(Cl)cc1N3 (stereo not drawn) [Compound 83]
2. COc1cc2ncnc3c2cc1OCCCCCCOc1ccc(Cl)cc1N3
3. COc1cc2ncnc3c2cc1OCCCCNC(=O)C1CCCN1Cc1ccc(Cl)cc1N3 (stereo not drawn)
4. COc1cc2ncnc3c2cc1OCCCCCCCCOc1ccc(Cl)cc1N3
5. COc1cc2ncnc3c2cc1OCCNC(=O)CNCc1ccc(Cl)cc1N3
6. COc1cc2ncnc3c2cc1OCCCNC(=O)C1CCCN1Cc1ccc(Cl)cc1N3 (stereo not drawn) [Compound 77]

1: 262 to 262.8 °C; 2: 241.5 to 242.7 °C; 3: 226.3 to 227.7 °C; 4: 147.7 to 151.1 °C; 5: 294.2 to 295.2 °C; 6: 129.8 to 132.8 °C

For each listed entry, give its melting point.
1. COc1cc2ncnc3c2cc1OCCNC(=O)CN(C)Cc1ccc(Cl)cc1N3
2. COc1cc2ncnc3c2cc1OCCNC(=O)C1CCCN1Cc1cc(F)c(Cl)cc1N3 (stereo not drawn)
3. COc1cc2ncnc3c2cc1OCCCNC(=O)CN(C)Cc1cc(F)c(Cl)cc1N3
4. COc1cc2ncnc3c2cc1OCCNCCN(C)Cc1ccc(Cl)cc1N3

1. 288.5 to 290.5 °C
2. 261.4 to 264 °C
3. 260.4 to 261.1 °C
4. 195.8 to 196.6 °C

For each listed entry, give its melting point.
1. COc1cc2ncnc3c2cc1OCCNC(=O)C(C)(C)NC(=O)Cc1ccc(Cl)cc1N3
2. COc1cc2ncnc3c2cc1OCCCNC(=O)CN(C)Cc1ccc(Cl)cc1N3

285 °C
240 to 240.3 °C

Kindly note the recorded melting point for COc1cc2ncnc3c2cc1OCCCNC(=O)C1CCCN(Cc2ccc(Cl)cc2N3)C1 (stereo not drawn) , which is 240.1 to 242.8 °C
